target: T1, Peptide B (human PAR-2), C-terminal biotinylated (Human, not fully specified); assay: peptide ELISA
T1 construct: also called Peptide B C-Term
T1 peptide: SLIGKVDGTSHVTGGGGGS-biotin
Where no end group is shown, it is not given here.
Recorded metric: OD450

| Binder | Recorded metric | Result |
| --- | --- | --- |
| H2M609N (antibody, V domains shown, chimeric: human variable, mouse constant domains) VH: EVQLVESGGGLVQPGRSLRLSCAASGFTFDDYAMHWVRQAPGKGLEWVSGISWNSGSKGFADSVKGRFTISRDNAKNSLYLQMNSLRVEDTALYYCAKENWSFDYWGQGTLVTVSS VL: DIVMTQTPLSSPVTLGQPASISCRSSQSLVHSDGNIYLSWLQQRPGQPPRLLIYKISNRFSGVPDRFSGSGAGTDFTLKISRVEAEDVGIYYCMQASHFPYTFGQGTKLEIK | OD450 | 0 to 0.09 od |
| H3M620N (antibody, V domains shown, chimeric: human variable, mouse constant domains) VH: EVQLVESGGNVVRPGGSLRLSCAASGFTFDDYGMTWVRQVPGKGLEWVSGINWNGGSTDYADSVKGRFTISRDNAKNSLYLQMNSLRAEDTALYYCARDKGFYGMDVWGQGTTVTVSS VL: DIVMTQSPDSLAVSLGERATINCKSSQNPLYNSNKKKYLAWYQQKPGQPPKLVIYWASTRESGVPDRFSGSGSGTDFTLTITSLQAEDVAVYYCQQYYSTPYTFGQGTKLEIK | OD450 | 0 to 0.09 od |
| H2M591N (antibody, V domains shown, chimeric: human variable, mouse constant domains) VH: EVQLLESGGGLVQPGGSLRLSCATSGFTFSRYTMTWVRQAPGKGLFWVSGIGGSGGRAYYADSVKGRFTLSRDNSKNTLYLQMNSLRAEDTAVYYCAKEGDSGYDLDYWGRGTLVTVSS VL: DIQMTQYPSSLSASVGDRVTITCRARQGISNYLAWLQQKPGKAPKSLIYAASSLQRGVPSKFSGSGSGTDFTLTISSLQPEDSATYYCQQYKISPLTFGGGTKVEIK | OD450 | 1 to 4 od |

Hello, the source for this data is patent US20110059095A1, in case you need it.
